// provenance: patent US8283358B2

# system under test: gamma-secretase (partially purified extract of IMR-32 cell membranes; substrate MBP-C125 Swe fusion protein, cleavage at the Aβ40 site) (Homo sapiens)
# Construct: a partially purified extract of IMR-32 cell membranes as the gamma-secretase enzyme preparation; endogenous in cells; host or cells: IMR-32 cell membranes, partially purified extract
# assay remarks: Gamma-secretase APP enzyme assay (Example A)
# Format: biochemical
# study conditions: class symbols; assay described in Example A; read-out: γAPP IC50
value type: IC50

Here are 5 compounds together with their reported answers.
| compound | value type | meas value |
| --- | --- | --- |
| O=S(=O)(c1ccc(C(F)(F)F)nc1)N1C2c3ccccc3C1[C@@H](F)c1n[nH]cc12 (stereo partly shown) | IC50 | < 100 nM |
| O=S(=O)(c1ccc(C(F)(F)F)cc1)N1C2Cc3[nH]ncc3C1CC(c1ccc(-n3cncn3)cc1)C2 (racemic) | IC50 | 100 to 499 nM |
| O=S(=O)(c1ccc(C(F)(F)F)cc1)N1C2=Cc3c(-c4cccc(C(F)(F)F)c4)cccc3C1Cc1n[nH]cc12 (stereo not shown) | IC50 | < 100 nM |
| O=S(=O)(c1ccc(C(F)(F)F)cc1)N1C2Cc3cccc(F)c3C1Cc1n[nH]cc12 (stereo not shown) [compound 190] | IC50 | < 100 nM |
| O=S(=O)(c1ccc(C(F)(F)F)nc1)N1C2Cc3[nH]ncc3C1c1cccc(Cl)c12 (stereo not shown) [compound 228] | IC50 | < 100 nM |

Suppose we examine the compound O=S(=O)(c1ccc(C(F)(F)F)nc1)N1C2c3cn[nH]c3[C@@H](O)C1c1cccc(F)c12 (stereo partly shown) ; what IC50 value has been reported?
< 100 nM

Now the compound COC(=O)c1ccc2c(c1)C1c3cn[nH]c3CC2N1S(=O)(=O)c1ccc(C(F)(F)F)nc1 (stereo not shown) [compound 203]
> 1000 nM

Now the compound O=S(=O)(c1ccc(C(F)(F)F)cc1)N1C2Cc3[nH]ncc3C1CC(c1ccc(-c3cscn3)cc1)C2 (stereo not shown)
< 100 nM

Now the compound O=S(=O)(c1ccc(C(F)(F)F)nc1)N1C2Cc3[nH]ncc3C1c1cc(-c3ccc(F)cc3)ccc12 (single isomer, unassigned) [compound 245]
100 to 499 nM

Now the compound O=S(=O)(c1ccc(C(F)(F)F)cc1)N1C2Cc3[nH]ncc3C1c1c2ccc2ccccc12 (stereo not shown) [compound 171]
100 to 499 nM

Now the compound O=S(=O)(c1ccc(C(F)(F)F)nc1)N1C2Cc3[nH]ncc3C1c1ccc(Cl)cc12 (single isomer, unassigned) [compound 224]
< 100 nM

Now the compound COC(=O)c1cccc2c1C1Cc3[nH]ncc3C2N1S(=O)(=O)c1ccc(C(F)(F)F)nc1 (stereo not shown) [compound 227]
100 to 499 nM

----------
A collection of molecules and their measured IC50
# system under test: gamma-secretase (partially purified extract of IMR-32 cell membranes; substrate MBP-C125 Swe fusion protein, cleavage at the Aβ40 site) (Homo sapiens, UniProt P49768)
# Construct: a partially purified extract of IMR-32 cell membranes as the gamma-secretase enzyme preparation; endogenous in cells; host or cells: IMR-32 cell membranes, partially purified extract
# assay remarks: Gamma-secretase APP enzyme assay (Example A)
# Type: biochemical
# study conditions: numeric bounds given instead of class symbols; assay described in Example A; read-out: γAPP IC50

Here are 5 molecules together with their reported answers.
| molecule | meas value |
| --- | --- |
| O=S(=O)(c1ccc(C(F)(F)F)nc1)N1C2Cc3[nH]ncc3C1c1ccccc12 (stereo not drawn) [compound 196] | > 30 nM |
| Cn1ncc(C2CC3Cc4[nH]ncc4C(C2)N3S(=O)(=O)c2ccc(Cl)cc2)n1 (stereo not drawn) [compound 139] | > 300 nM |
| O=S(=O)(c1ccc(C(F)(F)F)nc1)N1C2Cc3[nH]ncc3C1c1c(-c3ccc(F)cc3)cccc12 (racemic) [compound 273] | > 100 nM |
| O=c1oc2cc3c(cc2o1)C1c2cn[nH]c2CC3N1S(=O)(=O)c1ccc(C(F)(F)F)cc1 (racemic) [compound 109] | > 100 nM |
| CC12C(=O)c3[nH]ncc3C(c3ccccc31)N2S(=O)(=O)c1ccc(C(F)(F)F)nc1 (stereo not drawn) [compound 276] | > 30 nM |

# next molecule below
Suppose we examine the molecule Cc1cc(F)cc2c1C1c3c[nH]nc3CC2N1S(=O)(=O)c1ccc(C(F)(F)F)nc1 (stereo not drawn) [compound 158] ; what IC50 value has been reported?
> 10 nM

----------
A collection of compounds and their measured pIC50
# system under test: gamma-secretase (partially purified extract of IMR-32 cell membranes; substrate MBP-C125 Swe fusion protein, cleavage at the Aβ40 site) (Homo sapiens, UniProt P49768)
# Construct: a partially purified extract of IMR-32 cell membranes as the gamma-secretase enzyme preparation; endogenous in cells; host or cells: IMR-32 cell membranes, partially purified extract
# assay remarks: Gamma-secretase APP enzyme assay (Example A)
# Assay type: biochemical
# study conditions: class symbols; assay described in Example A; read-out: γAPP IC50
pIC50: −log10 of the molar value.

Suppose we examine the compound N#Cc1ccc2c(c1)C1Cc3n[nH]cc3C2N1S(=O)(=O)c1ccc(C(F)(F)F)nc1 (stereo not shown) [compound 167] ; what pIC50 value has been reported?
> 7.00

Now the compound O=S(=O)(c1ccc(C(F)(F)F)cc1)N1C2Cc3[nH]ncc3C1c1ccc3ccccc3c12 (stereo not shown) [compound 169]
6.30 to 7.00

Now the compound Cc1noc(-c2cccc3c2C2Cc4[nH]ncc4C3N2S(=O)(=O)c2ccc(C(F)(F)F)nc2)n1 (stereo not shown) [compound 234]
> 7.00

Now the compound O=S(=O)(c1ccc(C(F)(F)F)cc1)N1C2C=C(C3CC3)C1c1c[nH]nc1C2 (stereo not shown) [compound 44]
> 7.00

Now the compound O=S(=O)(c1ccc(C(F)(F)F)cc1)N1C2Cc3[nH]ncc3C1c1cccc(-c3ccc(F)cc3)c1C2 (racemic) [compound 162]
> 7.00

Now the compound O=S(=O)(c1ccc(C(F)(F)F)cc1)N1C2Cc3[nH]ncc3C1CC(c1nnn[nH]1)C2 (racemic) [compound 126]
< 6.00

Now the compound CO/N=C1\c2[nH]ncc2C2c3cccc(Cl)c3C1N2S(=O)(=O)c1ccc(C(F)(F)F)nc1 (stereo not shown) [compound 269]
> 7.00

----------
# system under test: gamma-secretase (partially purified extract of IMR-32 cell membranes; substrate MBP-C125 Swe fusion protein, cleavage at the Aβ40 site) (Homo sapiens)
# Construct: a partially purified extract of IMR-32 cell membranes as the gamma-secretase enzyme preparation; endogenous in cells; host or cells: IMR-32 cell membranes, partially purified extract
# assay remarks: Gamma-secretase APP enzyme assay (Example A)
# Type: biochemical
# study conditions: class symbols; assay described in Example A; read-out: γAPP IC50
value type: IC50

| compound | meas value |
| --- | --- |
| O=S(=O)(c1ccc(C(F)(F)F)nc1)N1C2Cc3n[nH]cc3C1c1nc(-c3ccc(F)cc3)ccc12 (stereo not shown) | 100 to 499 nM |
| O=S(=O)(c1ccc(C(F)(F)F)nc1)N1C2Cc3n[nH]cc3C1c1c(F)ccc(F)c12 (stereo not shown) [compound 149] | 100 to 499 nM |
| O=S(=O)(c1ccc(C(F)(F)F)nc1)N1C2Cc3[nH]ncc3C1c1c(C3CC3)cccc12 (racemic) | < 100 nM |

Suppose we examine the compound O=C1c2n[nH]cc2C2c3cc(F)c(F)cc3C1N2S(=O)(=O)c1ccc(C(F)(F)F)cc1 (stereo not shown) ; what IC50 value has been reported?
< 100 nM

----------
# system under test: gamma-secretase (partially purified extract of IMR-32 cell membranes; substrate MBP-C125 Swe fusion protein, cleavage at the Aβ40 site) (Homo sapiens, UniProt P49768)
# Construct: a partially purified extract of IMR-32 cell membranes as the gamma-secretase enzyme preparation; endogenous in cells; host or cells: IMR-32 cell membranes, partially purified extract
# assay remarks: Gamma-secretase APP enzyme assay (Example A)
# Format: biochemical
# study conditions: class symbols; assay described in Example A; read-out: γAPP IC50
value type: IC50

Here are 5 compounds together with their reported answers.
| compound | meas value |
| --- | --- |
| O=S(=O)(c1ccc(C(F)(F)F)nc1)N1C2Cc3[nH]ncc3C1c1cc(-c3ccc(F)cc3)ccc12 (stereo not shown) [compound 241] | < 100 nM |
| O=C1c2n[nH]cc2C2c3c(F)cccc3C1N2S(=O)(=O)c1ccc(C(F)(F)F)cc1 (stereo not shown) | < 100 nM |
| COC(=O)c1ccc2c(c1)C1c3cn[nH]c3CC2N1S(=O)(=O)c1ccc(C(F)(F)F)nc1 (stereo not shown) [compound 205] | 100 to 499 nM |
| O=S(=O)(c1ccc(C(F)(F)F)nc1)N1C2c3c[nH]nc3[C@@H](O)C1c1c(F)cccc12 (stereo partly shown) [compound 216] | 100 to 499 nM |
| O=S(=O)(c1ccc(C(F)(F)F)cc1)N1C2c3c[nH]nc3C(F)(F)C1c1cccc(F)c12 (stereo not shown) [compound 127] | < 100 nM |

Suppose we examine the compound O=S(=O)(c1ccc(C(F)(F)F)cc1)N1C2Cc3[nH]ncc3C1c1cnccc12 (stereo not shown) ; what IC50 value has been reported?
> 1000 nM

Now the compound O=S(=O)(c1ccc(C(F)(F)F)cc1)N1C2Cc3[nH]ncc3C1CC(c1cccc(-n3ccnc3)c1)C2 (stereo not shown)
< 100 nM
